target: Human Polymorphonuclear Leukocyte Elastase (Homo sapiens, UniProt P08246); construct: Crude extract of human polymorphonuclear leukocytes (PMN) containing elastase activity; endogenous in cells; host or cells: human polymorphonuclear leukocytes (crude extract); assay: Inhibition of human polymorphonuclear leukocyte (granulocyte) elastase via hydrolysis of Boc-AAPAN; type: biochemical; conditions: crude human PMN extract, 0.2 mM Boc-AAPAN, pH 7.5, 410 mμ, 2 minutes after zero time; read-out: IC50 (dosage for 50% inhibition of the enzyme activity) (converted)
Sequence (P08246 30-247 limits assumed): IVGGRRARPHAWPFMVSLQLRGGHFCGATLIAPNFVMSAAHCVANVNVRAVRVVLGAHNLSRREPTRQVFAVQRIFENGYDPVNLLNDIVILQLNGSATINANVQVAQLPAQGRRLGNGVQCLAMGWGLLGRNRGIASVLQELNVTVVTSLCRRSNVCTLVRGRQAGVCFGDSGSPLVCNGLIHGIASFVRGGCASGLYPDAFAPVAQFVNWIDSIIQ
measure.name: log10 IC50 (log10 of the value in µM)
Scale: decimal log of IC50, IC50 in µM.

Kindly indicate its recorded log10 IC50. Item: CC1(C)S[C@@H]2[C@H](COC(=O)NCc3ccccc3)C(=O)N2[C@H]1C(=O)OCc1ccccc1
1.52

Please indicate log10 IC50 recorded for CO[C@H]1C(=O)N2[C@@H](C(=O)OCc3ccc(C(=O)O)cc3)C(C)(C)S(=O)(=O)[C@H]12
0.70

In one line, give reported log10 IC50 of the entry Cc1ccc(S(=O)(=O)C[C@H]2C(=O)N3[C@@H](C(=O)OCc4ccccc4)C(C)(C)S(=O)(=O)[C@H]23)cc1 [6α-(TS)CH2 / 2 / OBZ] .
-0.21

Read the entry CN(CC(=O)O)C(=O)[C@@H]1N2C(=O)[C@H](NC(=O)C(F)(F)F)[C@H]2S(=O)(=O)C1(C)C and write its reported log10 IC50.
1.08

State its log10 IC50: CN(Cc1ccccc1)C(=O)[C@@H]1N2C(=O)[C@@H](NC(=O)C(F)(F)F)[C@H]2S(=O)(=O)C1(C)C
0.65

Consider the compound CC(=O)O[C@H]1C(=O)N2[C@@H]1SC(C)(C)[C@@H]2C(=O)OCc1ccccc1 . State its measured log10 IC50.
1.46
